TEST DESCRIPTION: log P by HPLC on reversed-phase C18 columns (OECD Guideline 117)
Assay type: physicochemical
EXPERIMENTAL CONTEXT: reversed-phase C18 HPLC column, pH 7.8, HPLC RP C18, neutral range pH 7.8, 0.001 molar aqueous ammonium hydrogencarbonate/acetonitrile; read-out: logP[b]
ENDPOINT: chromatographic logP

(a) Cn1cnc2c(cnn2-c2cncnc2)c1=O
(b) CCn1cnc2c(cnn2-c2cccnc2)c1=O
(c) CC(C)n1nnc2nn(-c3cccnc3)cc2c1=O
Which order do the above compounds take when sorted by rising chromatographic logP? Smallest first. # respond with the labels, arranged in the requested order a, b, c
(a: 0.55, b: 1.15, c: 1.7)

(I) CCNC(=O)c1cnn(-c2cccnc2)c1N
(II) CCOC(=O)c1cnn(-c2cccnc2)c1N
Lab note: check whether I or II has the lower measured chromatographic logP. # answer = label of selected item I

---

TEST DESCRIPTION: log P by HPLC on reversed-phase C18 columns (OECD Guideline 117)
Format: physicochemical
EXPERIMENTAL CONTEXT: reversed-phase C18 HPLC column, pH 7.8, HPLC RP C18, neutral range pH 7.8, 0.001 molar aqueous ammonium hydrogencarbonate/acetonitrile; read-out: logP[b]
ENDPOINT: chromatographic logP

# SMILES DATA, chromatographic logP
rows = [
    ("CCn1c(C)nc2nn(-c3cccnc3)cc2c1=O", 1.03),
    ("CCNC(=O)c1cn(-c2cccnc2)nc1N", 0.77),
    ("CC(C)n1cnc2nn(-c3ccnnc3)cc2c1=O", 0.85),
    ("CCn1cnc2nn(-c3cccnc3)cc2c1=O", 0.84),
]

Hey, just so you know, these numbers are from patent US9688681B2.
